System: U251 CNS
protocol.description: NCI-60 one-dose screen, 48 h (100 = growth as untreated, 0 = no growth, -100 = all killed)
test.conditions: 10 µM
About 83,000 compounds went through this panel and 20% of them were active in at least one assay; those are over-represented in the sample as a whole.
value.type: growth (%)
Give bare numbers, in %.

Below, 3 molecules whose answers are already recorded.
| molecule | unit.annotation | growth |
| --- | --- | --- |
| CC(CN(C)C)Oc1ccc(OC(C)CN(C)C)c2c1C(=O)c1ccccc1C2=O (centres undefined) | % | 30.1 |
| CN(C)CCOc1cccc(-c2nc3sccn3c2-c2ccnc(S(C)(=O)=O)n2)c1 | % | 90 |
| O=C(CI)OCC(COC(=O)CI)OC(=O)CI | % | 100 |

API: the following record is the query input.
Name the recorded growth for `S=C1N(c2ccccc2)CN(C2CCCCC2)CN1c1ccccc1` .
98.5

====

Give measured growth for each item. Keep answers brief.
Test system: OVCAR-5 ovarian
protocol.description: NCI-60 one-dose screen, 48 h (100 = growth as untreated, 0 = no growth, -100 = all killed)
test.conditions: 10 µM
Compounds without any hit were thinned out: in the full panel of roughly 83,000, 20% have a hit.
Give bare numbers, in %.

Below, 3 molecules whose answers are already recorded.
| molecule | target.system | growth [%] |
| --- | --- | --- |
| O=C(CCC(C(=O)c1ccccc1)c1ccccc1)c1ccccc1 (stereo not drawn) | OVCAR-5 ovarian | 88 |
| COc1cc2c(cc1NC(=O)C(Cl)Cl)-c1ccc(NC(=O)C(Cl)Cl)cc1C2 | OVCAR-5 ovarian | 10.2 |
| CC(C)(C)c1nn(-c2ccccc2)c2c1CC1(CN2Cc2ccc(Cl)cc2)C(=O)c2ccccc2C1=O | OVCAR-5 ovarian | 103 |

Report growth for each item below.
1. CCOc1ccccc1/C=N\N=C\c1ccccc1O
2. CC(C)(C)OC(=O)N1CCc2c(sc3ncnc(N/N=C/c4cccc(Br)c4)c23)C1
3. COc1cc(N)c2ncccc2c1SC
4. Cc1ccc(/C=C/C(=O)C(=O)/C=C/c2ccc(C)cc2)cc1
5. CC(C)(C)c1ccc(S(=O)(=O)N[C@H]2CC[C@H]3[C@@H]4CCc5cc(O)ccc5[C@H]4CC[C@]23C)cc1

1: 120; 2: 70.5; 3: 101; 4: 97.8; 5: 92.7

====

Tested on: SK-MEL-2 melanoma
protocol.description: NCI-60 one-dose screen, 48 h (100 = growth as untreated, 0 = no growth, -100 = all killed)
test.conditions: 10 µM
This is part of a sample that, as a whole, favours compounds with a hit. Of some 83,000 tested, about 20% had one in any assay.
Give measured growth for each item. Keep answers brief.
Give bare numbers, in %.

Report growth for each item below.
1. O=C1/C=C/[C@@H](O)[C@@H]2C[C@@H](O)C[C@H]2/C=C/CCC[C@H](C(F)(F)F)O1
2. COc1ccc(C(=O)COc2cccc(/C=C3\Cc4ccccc4C3=O)c2)cc1
3. COc1ccc(C(=O)c2ccccc2CN2C(=O)c3ccccc3C2=O)cc1
4. Cc1ccc(NC(=S)NNC(=S)Nc2ccc(C)cc2)cc1
5. COc1cc(/C=C2\CCCC3=C2N=C2SC(C)=CN2C3c2cc(OC)c(OC)c(OC)c2)cc(OC)c1OC (stereo unspecified)
6. Cc1nn(-c2ccccc2)c2nc(Cl)c(C=O)c(-c3ccccc3)c12
7. COc1ccc2c(c1)C(=O)/C(=C/c1ncc([N+](=O)[O-])n1C)O2
8. O=C(O)c1cc([N+](=O)[O-])ccc1Oc1ccccc1

[-18.3, 51.8, 103, 66.1, -19.6, 114, -52.1, 103]

Report growth for each item below.
1. CCOC(=O)CC(S(=O)(=O)c1ccccc1)S(=O)(=O)c1ccccc1
2. O=C(CN1CCN(C(=O)c2ccccc2)CC1)Nc1ccccc1SCc1ccccc1
3. COc1cc(C2C(C#N)=C(N)Oc3cc(O)ccc32)cc(OC)c1OC (stereo unspecified)

1: 97.4; 2: 66.8; 3: 23.4

====

Give measured growth for each item. Keep answers brief.
System: MDA-MB-231 breast
protocol.description: NCI-60 one-dose screen, 48 h (100 = growth as untreated, 0 = no growth, -100 = all killed)
test.conditions: 10 µM
About 83,000 compounds went through this panel and 20% of them were active in at least one assay; those are over-represented in the sample as a whole.
Numbers only, in %.

Below, 2 compounds whose answers are already recorded.
| compound | value.type | number |
| --- | --- | --- |
| Cc1cc(CSc2ccccc2C(=O)N2CC=C(c3ccccc3)CC2)on1 | growth | 95.3 |
| CC[C@@H](C(=O)[C@@H](C)[C@@H](O)[C@H](C)[C@@H]1O[C@@H]([C@@H](CC)C(=O)N(CC)CC)CC[C@@H]1C)C1O[C@]2(C=CC(=O)[C@]3(CC[C@@](C)([C@H]4CC[C@](O)(CC)[C@H](C)O4)O3)O2)[C@H](C)C[C@@H]1C (stereo partly drawn) | growth | 25.8 |

API: the following record is the query input.
Form entry - test system: MDA-MB-231 breast; read-out: growth; compound: COc1cc(CNC(=O)C2CSC3(C)c4ccccc4C(=O)N23)cc(OC)c1OC (stereo not drawn)
98.3

====

Test system: PC-3 prostate
protocol.description: NCI-60 one-dose screen, 48 h
test.conditions: 10 µM
Compounds without any hit were thinned out: in the full panel of roughly 83,000, 20% have a hit. Active and inactive are the calls of the source. The calls were made as follows: active = growth percent below 10; inactive = the rest.
Output constraint: value belongs to true (active), false (inactive)

| compound | class |
| --- | --- |
| CC1OC2CC(=O)OC2C2=C1C(=O)c1c(O)c3c(c(O)c1C2=O)C1CC(O)C3(O)C(C)O1 (configuration not stated) | true |
| COc1ccc(-c2nn(-c3cccc(Cl)c3)cc2-c2cc(-c3ccccc3)nc(N)n2)cc1 | false |
| Clc1ccc2c(c1)C(N1CCNCC1)=Nc1ccccc1O2 | false |

Per the assay record, what outcome was assigned to `CC(C)(C)c1nn(-c2ccccc2)c2c1CC1(CN2Cc2ccc(Cl)cc2)C(=O)c2ccccc2C1=O` ?
false

====

System: NCI-H460 lung
protocol.description: NCI-60 one-dose screen, 48 h
test.conditions: 10 µM
This is part of a sample that, as a whole, favours compounds with a hit. Of some 83,000 tested, about 20% had one in any assay. The source made the active and inactive calls. Rule for the calls: active = growth percent below 10; inactive = the rest.
Output constraint: value belongs to 1.0 for active, 0.0 for inactive

Some entries whose results are on file:
| compound | class |
| --- | --- |
| Cc1ccc(C(=O)/C=C/c2ccccc2)s1 | 0.0 |
| COc1ccc2c(c1)C(=O)/C(=C/c1ncc([N+](=O)[O-])n1C)O2 | 1.0 |
| CCC(c1ccc(OC)cc1)C(CC)c1ccc(O)c(CN2CCN(C)CC2)c1 (stereo not given) | 0.0 |
| COc1ccc2nc3cc(Cl)ccc3c(Nc3cc(CN4CCCC4)c(O)c(CN4CCCC4)c3)c2n1 | 1.0 |

Per the assay record, what outcome was assigned to Cc1c(O)c(=O)ccn1C1CCC(CC2CCC(n3ccc(=O)c(O)c3C)CC2)CC1 (stereo not given) ?
0.0

====

Test system: M14 melanoma
protocol.description: NCI-60 one-dose screen, 48 h
test.conditions: 10 µM
Description: Growth inhibition of the M14 human tumor cell line is measured as a screen for anti-cancer activity. Cells are grown in 96 well plates and exposed to the test compound for 48 hours. Compounds are tested at a single concentration, which is 10^-5 M for most compounds. The reported endpoint is percent growth (GI% or GIPRCNT), where numbers from 0 - 100% represent growth inhibition, and numbers from -100% - 0 represent cell death. For example, a value of 40 represents 60% growth inhibition. […]
The panel holds about 83,000 compounds, 20% with a hit somewhere; the sample as a whole holds those more often. Activity calls are given as the source filed them. The calls were made as follows: active = growth percent below 10; inactive = the rest.
Output constraint: value belongs to active, inactive

Some entries whose results are on file:
| line.notation | target.system | class |
| --- | --- | --- |
| CCc1ccc(C2=NN(c3ccc(S(C)(=O)=O)cc3)C(=O)CC2)cc1 | M14 melanoma | active |
| CCOC(=O)c1cc(C(=O)c2cc(OC)c(OC)c(OC)c2)n2c1ccc1c3cccnc3ccc12 | M14 melanoma | inactive |
| O=C(N/N=C/c1ccc(Cl)cc1)c1ccccc1Nc1cccc(C(F)(F)F)c1 | M14 melanoma | inactive |
| CC(C)CCN(CCC(C)C)CC(=O)Nc1ccc(S(=O)(=O)c2ccc(NC(=O)CN(CCC(C)C)CCC(C)C)cc2)cc1 | M14 melanoma | inactive |
| COc1ccc(-c2nn(-c3cccc(Cl)c3)cc2-c2c(C#N)c(N)n(N)c(=O)c2C#N)cc1 | M14 melanoma | inactive |

Per the assay record, what outcome was assigned to `CCOC(=O)CSc1nc(-c2cc(OC)ccc2OC)cc(-c2ccc(OC)cc2)c1C#N` ?
inactive
